I'd be grateful if you could share measured Mouse weight (%) for these entries.
Tested on: colo320 colorectal cancer tumor model
Conditions: 45 mg/kg once a week for four weeks; Table 3
Where a SMILES comes first, the peptide text is derived from it. The star is where a group is joined. NEt(2-(20S-CPT-7-yl)ethyl) = CCN(CCc1c2c(nc3ccccc13)-c1cc3c(c(=O)n1C2)COC(=O)[C@]3(O)CC)*; X8 = CC[C@@]1(O)C(=O)OCc2c1cc1n(c2=O)Cc2c-1nc1ccccc1c2CCN(C1CCCC1)*; X3 = CC[C@@]1(O)C(=O)OCc2c1cc1n(c2=O)Cc2c-1nc1ccccc1c2CCN(C1CC1)*; Propanoyl(3-maleimido) = O=C1C=CC(=O)N1CCC(=O)*; PEG6 = NCCOCCOCCOCCOCCOCCOCCC(=O)O

**Q:** Check the records and state Mouse weight (%) for CC[C@@]1(O)C(=O)OCc2c1cc1n(c2=O)Cc2c-1nc1ccccc1c2CCN(C(=O)CNC(=O)[C@H](CC(N)=O)NC(=O)[C@H](C)NC(=O)[C@H](C)NC(=O)CCOCCOCCOCCOCCOCCOCCNC(=O)CCN1C(=O)C=CC1=O)C1CCCC1 [MI-6PEG-AANG-D8] ({Propanoyl(3-maleimido)-PEG6}-AANG-X8)
**A:** +21%

**Q:** Check the records and state Mouse weight (%) for CCN(CCc1c2c(nc3ccccc13)-c1cc3c(c(=O)n1C2)COC(=O)[C@]3(O)CC)C(=O)CNC(=O)[C@H](CCCCN)NC(=O)[C@H](C)NC(=O)[C@H](C)NC(=O)CCOCCOCCOCCOCCOCCOCCNC(=O)CCN1C(=O)C=CC1=O [MI-6PEG-AAKG-D2] ({Propanoyl(3-maleimido)-PEG6}-AAKG-{NEt(2-(20S-CPT-7-yl)ethyl)})
**A:** +24%

**Q:** Check the records and state Mouse weight (%) for CC[C@@]1(O)C(=O)OCc2c1cc1n(c2=O)Cc2c-1nc1ccccc1c2CCN(C(=O)CNC(=O)[C@H](CC(N)=O)NC(=O)[C@H](C)NC(=O)[C@H](C)NC(=O)CCOCCOCCOCCOCCOCCOCCNC(=O)CCN1C(=O)C=CC1=O)C1CC1 [MI-6PEG-AANG-D6] ({Propanoyl(3-maleimido)-PEG6}-AANG-X3)
**A:** +17%
